# study-target: T1, GST-INADL PDZ domain 8 (Homo sapiens (Human)), Q8NI35
# T1 chain: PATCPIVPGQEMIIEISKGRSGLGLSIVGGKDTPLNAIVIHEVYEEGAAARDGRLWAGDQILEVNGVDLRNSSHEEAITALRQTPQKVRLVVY
# measurement-protocol: G' assay; note: key of the grades not given here
For each record, write down the corresponding Classification.
Answers are plain numbers, in A450 class.

>>> df
                                     binder  reported
0  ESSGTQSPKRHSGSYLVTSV (modifications not checked) [APC-adenomatous polyposis coli protein]         2
1  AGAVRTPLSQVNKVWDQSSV (modifications not checked) [CITRON protein]         1
2  ENLELPVNPSSVVSERISSV (modifications not checked) [serotonin receptor 5-HT-2C]         1
3  TFAAGFNSTGLPHSTTRV (modifications not checked) [Neuroligin]         1
4  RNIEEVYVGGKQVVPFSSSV (modifications not checked) [Nedasin (s-form)]         1

Batch lookup, Classification per entry.
1. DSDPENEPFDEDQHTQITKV (modifications not checked) [PTEN]
2. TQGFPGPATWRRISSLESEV (modifications not checked) [NMDA Glutamate Receptor 2C (cysteine-free)]
3. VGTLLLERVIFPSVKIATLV (modifications not checked) [AdenoE4 typ9]

[1, 1, 2]

Provide reported Classification for each item, in the same order as listed.
1. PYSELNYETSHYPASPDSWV (modifications not checked) [catenin - delta 2]
2. SYPTPRPYPKPAPSSGKDYV (modifications not checked) [claudin 1]

2
1
